These data points were gathered from paper PMC10783490.

system name: T1, TAM-AT1-AT2 Baz2B (Homo sapiens, UniProt Q9UIF8 721-884)
T1 sequence: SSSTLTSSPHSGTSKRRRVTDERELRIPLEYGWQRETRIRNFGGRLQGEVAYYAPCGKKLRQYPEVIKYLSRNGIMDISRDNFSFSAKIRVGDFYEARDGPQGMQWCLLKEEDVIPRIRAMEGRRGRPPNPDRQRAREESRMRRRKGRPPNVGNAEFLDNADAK
experiment summary: EMSA; EMSA: 20 mM HEPES pH 7.5, 30 mM KCl, 1 mM EDTA, 10 mM (NH4)2SO4, 1 mM DTT, 4 C, 10 nM probe; MST: same plus 0.1 ug/ml BSA, 5 nM probe, 25 C; GST-AT-hook and bromodomain EMSA as in cited refs
run parameters: protein: recombinant; tags: His6; label: 5' Cy5
value kind: Kd (nM)
Report the figure in nM without appending any unit label.

Query: Given GGGGGGUCAUUUUUGGGGAAACCCUGUCUCUUUCC (structured_RNA) [pRNAmini] , state its recorded Kd.
Response: 136
